// data source = the supplement of paper PMC10702517

Experiment: chemical recovery by SPE of plasma after PDMS sampling; higher = better extraction;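 also: over 400 spiked chemicals quantified by LC-HRMS or GC-HRMS via internal standard calibration, recovery relative to spike mix added to unspiked plasma extract to correct matrix effects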
Settings: pooled human plasma; extraction method: HLB SPE of plasma after PES; equilibration time (d): 6
Listed next: entries and their corresponding chemical recovery by SPE of plasma.

compound: O=c1[nH]c2ccccc2n1CCCN1CCC(n2c(=O)[nH]c3cc(Cl)ccc32)CC1
chemical recovery by SPE of plasma / %: 42.3
--
compound: COCN(COC)c1nc(N(COC)COC)nc(N(COC)COC)n1
chemical recovery by SPE of plasma / %: 0.745
--
compound: O=[N+]([O-])c1cc[n+]([O-])c2ccccc12 [4-Nitroquinoline-1-oxide]
chemical recovery by SPE of plasma / %: 13.5
--
compound: CNC(=O)/C(=N/OC)c1ccccc1COc1cc(C)ccc1C
chemical recovery by SPE of plasma / %: 7.35
--
compound: CCCCNS(=O)(=O)c1ccccc1 [N-Butylbenzenesulfonamide]
chemical recovery by SPE of plasma / %: 11.5
--
compound: CCCCc1nc(Cl)c(CO)n1Cc1ccc(-c2ccccc2-c2nnn[nH]2)cc1
chemical recovery by SPE of plasma / %: 46.7
--
compound: C#C[C@]1(O)CC[C@H]2[C@@H]3CCC4=CC(=O)CC[C@@H]4[C@H]3CC[C@@]21C
chemical recovery by SPE of plasma / %: 3.48
--
compound: Clc1cccc(Cl)c1NC1=NCCN1
chemical recovery by SPE of plasma / %: 12.3
--
compound: Clc1cc(Cl)c(-c2cc(Cl)c(Cl)cc2Cl)cc1Cl
chemical recovery by SPE of plasma / %: 1.44
--
compound: Cc1cccc(C)c1N(Cn1cccn1)C(=O)C[S+]([O-])CC(=O)O (centres undefined)
chemical recovery by SPE of plasma / %: 54.7
--
compound: O=C(c1ccc(OCCN2CCCCC2)cc1)c1c(-c2ccc(O)cc2)sc2cc(O)ccc12
chemical recovery by SPE of plasma / %: 39.8
--
compound: CCOC(=O)c1ccc(N(C)C)cc1 [Ethyl 4-(dimethylamino)benzoate]
chemical recovery by SPE of plasma / %: 1.11
--
compound: CNC1=C(c2cccc(C(F)(F)F)c2)C(=O)C(c2ccccc2)O1 (centres undefined)
chemical recovery by SPE of plasma / %: 6.82
--
compound: Clc1cc(-c2cc(Cl)c(Cl)c(Cl)c2Cl)c(Cl)c(Cl)c1Cl
chemical recovery by SPE of plasma / %: 2.4
--
compound: CNC(=O)Oc1cccc2c1OC(C)(C)O2
chemical recovery by SPE of plasma / %: 21.6
--
compound: COC[P+](c1ccccc1)(c1ccccc1)c1ccccc1
chemical recovery by SPE of plasma / %: 48.9
--
compound: CCc1cccc(C)c1N(C(=O)C(=O)O)C(C)C(=O)O (centres undefined)
chemical recovery by SPE of plasma / %: 47.4
--
compound: O=C(O)c1ccc(Cl)cc1Cl
chemical recovery by SPE of plasma / %: 47
--
compound: CC(C)CC(C)(O)C#CC(C)(O)CC(C)C (centres undefined)
chemical recovery by SPE of plasma / %: 38.6
